// data source = PubChem BioAssay (Tox21)

assay: qHTS assay to identify small molecule antagonists of the estrogen receptor alpha (ER-alpha) signaling pathway using the BG1 cell line in the presence of 0.1 nM 17-beta-estradiol - cell viability counter screen (AID 1259241); settings: VM7Luc4E2 (BG1) viability, CellTiter-Fluor protease, 22 h, 0.1 nM estradiol agonist added; series mostly up to 92.4 µM; also: nearly all actives have a fitted effect of over 40% in size
Records with an inconclusive call do not appear. Calls of active or inactive are those of the source. Calls follow the shape of the dose curve; as a rule, active = well fitted cell-killing curve with a large enough effect in the repeat runs; inconclusive = weak or mixed curves, or effect the other way; inactive = flat fitted curve, though single readings scatter.
Outcome codes: active, inactive

compound	assigned category
CC1(C)C(/C=C(\Cl)C(F)(F)F)C1C(=O)OC(C#N)c1cccc(Oc2ccccc2)c1 (stereo unspecified)	inactive
CNC(C)Cc1ccc2c(c1)OCO2 (stereo unspecified)	inactive
CCc1nn(C)c(C(=O)NCc2ccc(C(C)(C)C)cc2)c1Cl	active
CC(=O)[O-].[Tl+]	inactive
C[C@]12CC[C@H]3[C@@H](CCC4=CC(=O)CC[C@@]43C)[C@@H]1CC[C@@H]2O	inactive
c1ccc2c(c1)OCC(C1=NCCN1)O2 (stereo unspecified)	inactive

###

Test: qHTS assay to identify small molecule antagonists of the androgen receptor (AR) signaling pathway using the MDA cell line - cell viability counter screen (AID 743041; also: nearly all actives have a fitted effect of over 45% in size)
Conditions: MDA-kb2 viability, CellTiter-Fluor, 16 h, cells co-treated with R1881 androgen agonist; series mostly up to 70.3 µM
Source text: National Center for Advancing Translational Sciences [NCATS] NIH Chemical Genomics Center [NCGC] U.S. Environmental Protection Agency [EPA] National Institutes of Environmental Health Sciences [NIEHS] National Toxicology Program [NTP] U.S. Food and Drug Administration [FDA] Androgen receptor (AR), a nuclear hormone receptor, plays a critical role in AR-dependent prostate cancer and other androgen related diseases. […]
Records with an inconclusive call do not appear. The source made the active and inactive calls. Calls follow the shape of the dose curve; as a rule, active = well fitted cell-killing curve with a large enough effect in the repeat runs; inconclusive = weak or mixed curves, or effect the other way; inactive = flat fitted curve, though single readings scatter.
Outcomes: active, inactive

compound	assigned category
Fc1cccc(Cl)c1CCl	inactive
CC(=O)[O-].CC(=O)[O-].O.O.[Cd+2]	inactive
CN(C)CCc1c[nH]c2cccc(O)c12	inactive
CC(C)N1C(=O)N(c2ccccc2)CSC1=NC(C)(C)C	inactive
COc1ccc(/C(=C/C(=O)N2CCOCC2)c2ccc(Cl)cc2)cc1OC	inactive
CCN	inactive
COc1ccc(N)cc1N	inactive
Cc1cc(C(C)(C)c2cc(C)c(O)c(C)c2)cc(C)c1O	inactive
COc1cc(N)c(Cl)cc1C(=O)NC1CN2CCC1CC2 (configuration not stated)	inactive
O=C1NCN(c2ccccc2)C12CCN(CC1COc3ccccc3O1)CC2 (configuration not stated)	inactive
Cc1cc(C(F)(C(F)(F)F)C(F)(F)F)ccc1NC(=O)c1cccc(I)c1C(=O)NC(C)(C)CS(C)(=O)=O	inactive
CN(C)S(=O)(=O)N(SC(F)(Cl)Cl)c1ccccc1	active

###

Test: A CellTox Green Cytotoxicity Assay to monitor cytotoxicity in HepG2 cells - 32 hour (AID 1224883); also: nearly all actives have a fitted effect of over 50% in size; also: potency is read from the fitted curve at half-maximal effect
Conditions: CellTox Green fluorescence; series mostly up to 76.8 µM
Source text: National Center for Advancing Translational Sciences [NCATS] NIH Chemical Genomics Center [NCGC] U.S. Environmental Protection Agency [EPA] National Institutes of Environmental Health Sciences [NIEHS] National Toxicology Program [NTP] Cell-based models are critical for drug discovery. […] Viable cells produce no appreciable increases in fluorescence. Therefore, the fluorescence signal produced by the binding interaction with dead cell DNA is proportional to cytotoxicity. […]
Results filed as inconclusive are left out. Calls of active or inactive are those of the source. Calls follow the shape of the dose curve; as a rule, active = well fitted activation curve with a large enough effect in the repeat runs; inconclusive = weak or mixed curves; inactive = flat fitted curve, though single readings scatter.

compound	Potency
CC(=O)[O-].[Tl+]	inactive
CCCCCCCCCCCCCCCC[n+]1ccccc1	15.5 µM (active) [middle of 4 runs]
COC(=O)N(C(=O)N1CO[C@@]2(C(=O)OC)Cc3cc(Cl)ccc3C2=N1)c1ccc(OC(F)(F)F)cc1	inactive
COP(N)(=S)OC	inactive
C[C@]12CC[C@H]3[C@@H](CCC4=CC(=O)CC[C@@]43C)[C@@H]1CC[C@@H]2O	inactive
CCOCn1c(-c2ccc(Cl)cc2)c(C#N)c(Br)c1C(F)(F)F	12.3 µM (active)
Oc1ccccc1Br	inactive
c1cc[c]([Sb]([c]2ccccc2)[c]2ccccc2)cc1	inactive
C[C@]12CC[C@H](O)C[C@H]1CC[C@@H]1[C@@H]2C[C@@H](O)[C@]2(C)[C@@H](C3=CC(=O)OC3)CC[C@]12O	inactive
Clc1ccc(-c2ccccc2)cc1	inactive
O=c1[nH]c2ccccc2n1CCCN1CCC(n2c(=O)[nH]c3cc(Cl)ccc32)CC1	21.3 µM (active)
CC(C)CC(C)N (centres undefined)	inactive
CCOC(=O)c1ccccc1S(=O)(=O)NC(=O)Nc1nc(Cl)cc(OC)n1	inactive
ClC1=C(Cl)[C@]2(Cl)[C@H]3[C@H]([C@H]4C=C[C@H]3C4)[C@@]1(Cl)C2(Cl)Cl	inactive
CN(C)C1CSSSC1	inactive
CC(C)[C@H](C(=O)O[C@H](C#N)c1cccc(Oc2ccccc2)c1)c1ccc(Cl)cc1	inactive
CCOC(=O)OC1=C(c2cc(C)ccc2C)C(=O)NC12CCC(OC)CC2 (centres undefined)	inactive
C=CC(=O)OCCCCOC(=O)C=C	43.6 µM (active)
Fc1ccc(Oc2ccnc3cc(Cl)cc(Cl)c23)cc1	inactive
Clc1ccc(C(c2ccccc2Cl)C(Cl)(Cl)Cl)cc1 (centres undefined)	inactive
COC12CC[C@@]3(C[C@@H]1C(C)(O)C(C)(C)C)[C@H]1Cc4ccc(O)c5c4[C@@]3(CCN1CC1CC1)[C@H]2O5 (some centres undefined)	38.6 µM (active)
O=C(O)C1C2CCC(O2)C1C(=O)O (centres undefined)	inactive
CC(C)C1CCC(Cc2ccc(Cl)cc2)C1(O)Cn1cncn1 (centres undefined)	43.2 µM (active)
COc1cc(C=O)cc2c1[C@H](COC(N)=O)[C@]1(OC(C)=O)ON2C[C@H]2[C@@H]1N2C(C)=O	0.0977 µM (active)
ClC1=C(Cl)C2(Cl)C3C(Cl)C=CC3C1(Cl)C2(Cl)Cl (centres undefined)	54.9 µM (active)
c1ccc2c(c1)[nH]c1cnccc12	inactive
N#C/C=C/c1ccccc1	inactive
CC(C)(C)OO	inactive
[Hg+2].[I-].[I-]	7.76 µM (active)
O=[N+]([O-])c1cc([N+](=O)[O-])c2ccccc2c1	inactive
C[C@]12Cc3nonc3C[C@@H]1CC[C@@H]1[C@@H]2CC[C@@]2(C)[C@H]1CC[C@]2(C)O	inactive
CC(C)(C)C(O)/C(=C\c1ccc(Cl)cc1Cl)n1cncn1 (centres undefined)	59.3 µM (active)
C=CC(=O)OCC(COC(=O)C=C)(COC(=O)C=C)COC(=O)C=C	38.9 µM (active)
Nc1ccc(Cl)cc1C(=O)c1ccccc1	inactive
O=[N+]([O-])c1cc(C(F)(F)F)c(Cl)c([N+](=O)[O-])c1Cl	21.9 µM (active)
CC(=[OH+])/C=C(/C)[O-].CC(=[OH+])/C=C(\C)[O-].CC(=[OH+])/C=C(\C)[O-].[Fe]	inactive
N#CCc1ccc(Cl)cc1	inactive
CCSC(C)CC1CC(=O)C(/C(CC)=N/OC/C=C/Cl)=C(O)C1 (centres undefined)	inactive
N#CC(Cl)Cl	inactive
S=C(SSC(=S)N1CCCCC1)N1CCCCC1	0.19 µM (active)
CC1(C)C(/C=C(\Cl)C(F)(F)F)C1C(=O)OC(C#N)c1cccc(Oc2ccccc2)c1 (centres undefined)	inactive
C=CCOC(N)=O	inactive
Clc1ccc(Oc2ccccc2)cc1	inactive
[CH3][Hg][Cl]	12.3 µM (active)
Nc1ccccc1C(=O)OC/C=C/c1ccccc1	inactive
CNC(C)Cc1ccc2c(c1)OCO2 (centres undefined)	inactive
CC(=O)C(Cl)(Cl)Cl	inactive
C[C@@H](Oc1ccc(Cl)cc1Cl)C(=O)O	inactive
Cc1cc(C)cc(OP(=O)(Oc2cc(C)cc(C)c2)Oc2cc(C)cc(C)c2)c1	inactive
